Reported GI50 values for a set of compounds
Molecular target: Ba/F3 EGFR Wild-type (Homo sapiens, UniProt P00533)
Sequence (P00533 whole entry, change not shown): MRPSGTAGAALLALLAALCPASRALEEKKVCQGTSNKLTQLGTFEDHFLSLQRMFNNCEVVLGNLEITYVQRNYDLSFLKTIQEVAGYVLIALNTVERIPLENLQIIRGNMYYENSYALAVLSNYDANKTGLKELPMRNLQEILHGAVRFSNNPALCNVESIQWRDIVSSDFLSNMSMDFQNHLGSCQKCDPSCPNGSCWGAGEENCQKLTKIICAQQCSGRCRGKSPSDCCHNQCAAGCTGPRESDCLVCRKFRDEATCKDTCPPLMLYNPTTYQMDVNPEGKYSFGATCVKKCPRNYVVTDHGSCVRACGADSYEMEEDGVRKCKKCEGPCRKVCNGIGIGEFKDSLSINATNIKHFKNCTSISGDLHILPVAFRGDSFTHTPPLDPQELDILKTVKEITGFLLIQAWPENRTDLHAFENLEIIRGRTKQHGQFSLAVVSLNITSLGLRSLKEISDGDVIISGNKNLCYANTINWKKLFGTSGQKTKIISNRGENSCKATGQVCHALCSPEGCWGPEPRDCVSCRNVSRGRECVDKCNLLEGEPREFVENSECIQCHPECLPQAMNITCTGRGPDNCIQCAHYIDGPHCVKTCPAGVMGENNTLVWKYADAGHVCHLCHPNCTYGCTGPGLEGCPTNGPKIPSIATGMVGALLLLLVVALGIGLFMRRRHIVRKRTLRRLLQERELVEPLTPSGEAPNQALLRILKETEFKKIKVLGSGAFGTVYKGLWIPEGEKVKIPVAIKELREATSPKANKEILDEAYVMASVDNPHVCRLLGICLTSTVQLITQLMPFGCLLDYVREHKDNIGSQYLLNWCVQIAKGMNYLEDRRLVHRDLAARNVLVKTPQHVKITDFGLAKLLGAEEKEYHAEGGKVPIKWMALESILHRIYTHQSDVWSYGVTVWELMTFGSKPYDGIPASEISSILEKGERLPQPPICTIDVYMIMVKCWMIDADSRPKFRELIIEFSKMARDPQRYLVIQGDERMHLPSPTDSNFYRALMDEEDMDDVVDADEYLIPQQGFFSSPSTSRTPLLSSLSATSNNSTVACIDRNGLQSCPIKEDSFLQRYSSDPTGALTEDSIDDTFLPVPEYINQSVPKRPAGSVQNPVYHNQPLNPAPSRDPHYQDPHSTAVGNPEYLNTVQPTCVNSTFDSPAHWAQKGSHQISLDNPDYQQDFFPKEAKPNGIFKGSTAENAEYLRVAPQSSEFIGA
Test: CellTiter-Glo cell viability, Ba/F3 EGFR wild-type cells
Format: cell-based, murine
Conditions: 72 hours, read-out: Ba/F3 EGFR mutant cell (IC50, nM) WT

Known results for compounds:
>>> reported_value("COC(=O)Nc1c(Nc2nc(Nc3ccc(C4CCNCC4)cc3OC)ncc2Cl)ccc2nccnc12 [Example D4]")
"> 2000 nM"
>>> reported_value("COc1cc(N2CCC(N(C)C)CC2)c(C)cc1Nc1ncc(C(F)(F)F)c(Nc2ccc3nccnc3c2NS(C)(=O)=O)n1 [Example B9]")
"> 2000 nM"

As a next step, examine the compound that follows.
Q: Fill in the blank: the reported GI50 of CCCc1cc(Nc2ncc(Cl)c(Nc3ccc4nccnc4c3N(C)S(C)(=O)=O)n2)c(OC)cc1N1CCC(N2CCOCC2)CC1 [Example A41] is ____.
A: > 2000 nM

The measured values listed here are drawn from patent US12297194B2.
